Molecular target: human vanin-1 (Homo sapiens (Human), UniProt O95497)
Sequence (O95497 22-491): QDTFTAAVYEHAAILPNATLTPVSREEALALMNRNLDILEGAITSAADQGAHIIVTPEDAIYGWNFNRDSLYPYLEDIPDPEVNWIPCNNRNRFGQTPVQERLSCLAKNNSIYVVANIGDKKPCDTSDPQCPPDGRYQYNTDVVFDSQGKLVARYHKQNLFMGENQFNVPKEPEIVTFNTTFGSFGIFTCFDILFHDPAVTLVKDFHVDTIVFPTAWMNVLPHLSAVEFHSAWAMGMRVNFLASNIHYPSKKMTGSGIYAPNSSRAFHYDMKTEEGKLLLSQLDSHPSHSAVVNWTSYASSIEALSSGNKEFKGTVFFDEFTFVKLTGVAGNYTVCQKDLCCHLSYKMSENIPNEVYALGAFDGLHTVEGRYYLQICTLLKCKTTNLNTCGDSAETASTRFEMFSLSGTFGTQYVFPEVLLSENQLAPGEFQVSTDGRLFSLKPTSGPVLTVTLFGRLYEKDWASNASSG
Assay: Human Vanin-1 Enzyme Assay 1
Assay type: biochemical
Settings: 25 pM human vanin-1, 50 uM pantetheine 7-amino-4-trifluoromethylcoumarin substrate
Rule: IC50 below 2 nM gives satisfied, anything at or above gives not satisfied.

[[record]]
compound = "O=C(c1cnc(NC2(c3cnccn3)CCC2)nc1)N1CCC2(CCOCC2)C1 [Example 130]"
qualitative_label = "satisfied"

[[record]]
compound = "CCOC1CCCN(C(=O)c2cnc(NC3(c4cncnc4)CC3)nc2)C1 (stereo not drawn) [Example 104]"
qualitative_label = "not satisfied"

[[record]]
compound = "CS(=O)(=O)C1CCCN(C(=O)c2cnc(NC3(c4cncnc4)CC3)nc2)C1 (stereo not drawn) [Example 198]"
qualitative_label = "not satisfied"

[[record]]
compound = "O=C(c1cnc(NC2(c3cncnc3)CC2)nc1)N1CCC2(CCCCO2)CC1 [Example 50]"
qualitative_label = "not satisfied"

[[record]]
compound = "O=C(c1cnc(NCc2cccnc2)nc1)N1CCC2(CCOCC2)C1 [Example 1]"
qualitative_label = "satisfied"

[[record]]
compound = "C[C@H](Nc1ncc(C(=O)N2CCC3(CCOCC3)C2)cn1)c1cncnc1 [Example 149]"
qualitative_label = "satisfied"

[[record]]
compound = "O=C(c1cnc(NCc2cccnc2)nc1)N1[C@@H]2CC[C@H]1C[C@@H](O)C2 [Example 28]"
qualitative_label = "not satisfied"

[[record]]
compound = "Cc1ccc(C(C)Nc2ncc(C(=O)N3CC4(CCOCC4)C3)cn2)cn1 (stereo not drawn) [Example 163]"
qualitative_label = "satisfied"

[[record]]
compound = "Cc1ccc(C2(Nc3ncc(C(=O)N4CC5(CCOCC5)C4)cn3)CC2)cn1 [Example 176]"
qualitative_label = "satisfied"

[[record]]
compound = "Cc1nc(NCc2cnccn2)ncc1C(=O)N1CCC2(CCOCC2)C1 [Example 139]"
qualitative_label = "not satisfied"

[[record]]
compound = "Cc1ccc(CNc2ncc(C(=O)N3CCC4(CCOCC4)C3)cn2)cn1 [Example 137]"
qualitative_label = "not satisfied"

[[record]]
compound = "Cc1ccc(C(C)Nc2ncc(C(=O)N3CCC4(CCOCC4)C3)cn2)cn1 (stereo not drawn) [Example 162]"
qualitative_label = "satisfied"

